Measured FICI (KET:INH), listed per entry for reference.
- Test system: Saccharomyces cerevisiae
- RUN_DESCRIPTION: checkerboard drug interaction (FICI, MICc)
- Type: cell-based
- CONDITION_DETAILS: Fractional Inhibitory Concentration Index, ketoconazole + inhibitor
// response body must contain only the number

Record excerpt, results attached:
CCCCCCCCCCCN1CCC[C@H]1C(=O)N[C@@H](CC(=O)OC)C(=O)OC [dmPLA11] = 1
CCCCCCCCCN1CCC[C@H]1C(=O)N[C@H](CC(=O)O)C(=O)O [PDA9] = 0.5
CCCCCCCCCCCCN1CCC[C@H]1C(=O)N[C@@H](CC(=O)OC)C(=O)OC [dmPLA12] = 0.38

In the following, a different compound is considered.
Reported FICI (KET:INH), compound CCCCCCCCCCCN1CCC[C@H]1C(=O)N[C@H](CC(=O)OC)C(=O)OC [dmPDA11] : ____ 1.25

----------
- Tested on: Candida tropicalis
- RUN_DESCRIPTION: MIC broth microdilution (CLSI)
- Type: cell-based
- CONDITION_DETAILS: Candida tropicalis M230640
# label = Condition met if MIC / MEC < 1 µg/mL else Condition not met

CCCCCCCCCCn1cc[n+](CC(O)(P(=O)(O)O)P(=O)(O)O)c1 [10-ZOL, Decyl-zoledronate] = Condition not met
CC(=O)N1CCN(c2ccc(OCC3COC(Cn4ccnc4)(c4ccc(Cl)cc4Cl)O3)cc2)CC1 (stereo not drawn) [KET, ketoconazole] = Condition not met
Nc1nc(=O)[nH]cc1F [5FC, 5-flucytosine] = Condition met

Would you kindly verify if MIC / MEC of C[C@@H](c1ncncc1F)[C@](O)(Cn1cncn1)c1ccc(F)cc1F [VOR] is strictly less than 1 µg/mL? Condition met

Would you kindly verify if MIC / MEC of O=P(O)(O)C(O)(Cn1ccnc1)P(=O)(O)O [ZOL, zoledronate] is strictly less than 1 µg/mL? Condition not met

Would you kindly verify if MIC / MEC of CCC(C)n1ncn(-c2ccc(N3CCN(c4ccc(OCC5COC(Cn6cncn6)(c6ccc(Cl)cc6Cl)O5)cc4)CC3)cc2)c1=O (stereo not drawn) [ITR, itraconazole] is strictly less than 1 µg/mL? Condition met

Would you kindly verify if MIC / MEC of CC[C@H](C)C[C@H](C)CCCCCCCCC(=O)N[C@H]1C[C@@H](O)[C@@H](NCCN)NC(=O)[C@@H]2[C@@H](O)CCN2C(=O)[C@H]([C@H](O)CCN)NC(=O)[C@H]([C@H](O)[C@@H](O)c2ccc(O)cc2)NC(=O)[C@@H]2C[C@@H](O)CN2C(=O)[C@H]([C@@H](C)O)NC1=O [CAS, caspofungin] is strictly less than 1 µg/mL? Condition met

Would you kindly verify if MIC / MEC of OC(Cn1cncn1)(Cn1cncn1)c1ccc(F)cc1F [FLC, fluconazole] is strictly less than 1 µg/mL? Condition not met

----------
- Test system: Pichia kudriavzevii
- RUN_DESCRIPTION: checkerboard drug interaction (FICI, MICc)
- Assay type: cell-based
- CONDITION_DETAILS: in combination with ZOL
# label = y if antifungal MICc < 0.5 else n

Illustrative cases are given below, each with its answer.
C[C@@H]1[C@H](O)[C@@H](C)/C=C/C=C/C=C/C=C/C=C/C=C/C=C/[C@H](O[C@@H]2O[C@H](C)[C@@H](O)[C@H](N)[C@@H]2O)C[C@@H]2O[C@](O)(C[C@@H](O)C[C@@H](O)[C@H](O)CC[C@@H](O)C[C@@H](O)CC(=O)O[C@H]1C)C[C@H](O)[C@H]2C(=O)O = y
C[C@@H](c1ncncc1F)[C@](O)(Cn1cncn1)c1ccc(F)cc1F = n
OC(Cn1cncn1)(Cn1cncn1)c1ccc(F)cc1F = n

Would you kindly verify if antifungal MICc of Nc1nc(=O)[nH]cc1F is strictly less than 0.5? n

Would you kindly verify if antifungal MICc of CCC(C)n1ncn(-c2ccc(N3CCN(c4ccc(OCC5COC(Cn6cncn6)(c6ccc(Cl)cc6Cl)O5)cc4)CC3)cc2)c1=O (stereo not shown) is strictly less than 0.5? y

Would you kindly verify if antifungal MICc of CC(=O)N1CCN(c2ccc(OCC3COC(Cn4ccnc4)(c4ccc(Cl)cc4Cl)O3)cc2)CC1 (stereo not shown) is strictly less than 0.5? y

----------
Measured antifungal MICc, listed per entry for reference.
- Tested on: Cryptococcus deneoformans
- RUN_DESCRIPTION: checkerboard drug interaction (FICI, MICc)
- Type: cell-based
- CONDITION_DETAILS: in combination with ZOL

CCC(C)n1ncn(-c2ccc(N3CCN(c4ccc(OCC5COC(Cn6cncn6)(c6ccc(Cl)cc6Cl)O5)cc4)CC3)cc2)c1=O (stereo not shown) [ITR, itraconazole] = 0.125
Nc1nc(=O)[nH]cc1F [5FC, 5-flucytosine] = 0.5
C[C@@H]1[C@H](O)[C@@H](C)/C=C/C=C/C=C/C=C/C=C/C=C/C=C/[C@H](O[C@@H]2O[C@H](C)[C@@H](O)[C@H](N)[C@@H]2O)C[C@@H]2O[C@](O)(C[C@@H](O)C[C@@H](O)[C@H](O)CC[C@@H](O)C[C@@H](O)CC(=O)O[C@H]1C)C[C@H](O)[C@H]2C(=O)O [AMB, amphotericin B] = 0.125
C[C@@H](c1ncncc1F)[C@](O)(Cn1cncn1)c1ccc(F)cc1F [VOR] = 0.0625
OC(Cn1cncn1)(Cn1cncn1)c1ccc(F)cc1F [FLC, fluconazole] = 0.125

Reported antifungal MICc, molecule CC(=O)N1CCN(c2ccc(OCC3COC(Cn4ccnc4)(c4ccc(Cl)cc4Cl)O3)cc2)CC1 (stereo not shown) [KET, ketoconazole] : ____ 0.03125

Reported antifungal MICc, molecule CC[C@H](C)C[C@H](C)CCCCCCCCC(=O)N[C@H]1C[C@@H](O)[C@@H](NCCN)NC(=O)[C@@H]2[C@@H](O)CCN2C(=O)[C@H]([C@H](O)CCN)NC(=O)[C@H]([C@H](O)[C@@H](O)c2ccc(O)cc2)NC(=O)[C@@H]2C[C@@H](O)CN2C(=O)[C@H]([C@@H](C)O)NC1=O [CAS, caspofungin] : ____ 8

----------
- Test system: Saccharomyces cerevisiae
- RUN_DESCRIPTION: checkerboard drug interaction (FICI, MICc);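 further: simplified diagonal checkerboard screen pairing antifungals with FPPS inhibitors, FICI calculated under the Loewe additivity model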
- Assay type: cell-based
- CONDITION_DETAILS: S. cerevisiae; ITR:INH combination; fold decrease of ITR MIC
ATTRIBUTE_MEASURED: ITR FD (MIC-MICc fold decrease)
// response body must contain only the number

Record excerpt, results attached:
CCCCCCCCCN1CCC[C@H]1C(=O)N[C@@H](CC(=O)OC)C(=O)OC [dmPLA9] = -2
CCCCCCCCCN1CCC[C@H]1C(=O)N[C@@H](CC(=O)O)C(=O)O [PLA9] = 4
CCCCCCCCCCCN1CCC[C@H]1C(=O)N[C@@H](CC(=O)O)C(=O)O [PLA11] = 4
O=P(O)(O)C(O)(Cn1ccnc1)P(=O)(O)O [ZOL, zoledronate] = 4

In the following, a different molecule is considered.
Reported ITR FD (MIC-MICc fold decrease), molecule CCCCCCCCCCN1CCC[C@H]1C(=O)N[C@@H](CC(=O)OC)C(=O)OC [dmPLA10] : ____ 1

----------
- System: Cryptococcus neoformans
- RUN_DESCRIPTION: MIC/MFC broth microdilution (CLSI);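 further: susceptibility testing followed the CLSI M27-Ed4 broth microdilution document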
- CONDITION_DETAILS: Cryptococcus neoformans
ATTRIBUTE_MEASURED: MFC (µg/mL)
Provide only the numeric value, understood in µg/mL.

CCC(C)n1ncn(-c2ccc(N3CCN(c4ccc(OCC5COC(Cn6cncn6)(c6ccc(Cl)cc6Cl)O5)cc4)CC3)cc2)c1=O (centres unmarked) = 4
CCCCCCCCCCCCN1CCC[C@H]1C(=O)N[C@@H](CC(=O)OC)C(=O)OC = 16
CCCCCCCCCN1CCC[C@H]1C(=O)N[C@H](CC(=O)OC)C(=O)OC = 128
CCCCCCCCCCN1CCC[C@H]1C(=O)N[C@@H](CC(=O)OC)C(=O)OC = 64

In the following, a different compound is considered.
Under Cryptococcus neoformans: MFC value of CCCCCCCCCCCN1CCC[C@H]1C(=O)N[C@H](CC(=O)OC)C(=O)OC ? 32

----------
- Tested on: Cryptococcus neoformans
- RUN_DESCRIPTION: checkerboard drug interaction (FICI, MICc)
- Type: cell-based
- CONDITION_DETAILS: C. neoformans; FLC:INH combination; fold decrease of FLC MIC
ATTRIBUTE_MEASURED: FLC FD (MIC-MICc fold decrease)
// response body must contain only the number

CCCCCCCCCCCCN1CCC[C@H]1C(=O)N[C@@H](CC(=O)OC)C(=O)OC = 1
CCCCCCCCCCCN1CCC[C@H]1C(=O)N[C@H](CC(=O)OC)C(=O)OC = 1

In the following, a different compound is considered.
Reported FLC FD (MIC-MICc fold decrease), compound CCCCCCCCCCN1CCC[C@H]1C(=O)N[C@@H](CC(=O)OC)C(=O)OC : ____ 4
